This collection of values is drawn from the RNAGym collection of RNA variant scans (doi:10.7554/elife.80360).

Quick reference for self-cleavage among some variants
B1: HDV Ribozyme (parent)
chain: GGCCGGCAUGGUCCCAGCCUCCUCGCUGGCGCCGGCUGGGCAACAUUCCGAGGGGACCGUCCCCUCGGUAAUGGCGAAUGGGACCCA

variants of: B1; experiment: self-cleavage, relative activity (ratio to wild type); higher = more cleavage; co-transcriptional

Below, 3 variants whose answers are already recorded.
C7U U72G    0.332
G31C C58U    0.339
C4U U20A    0.0554

stdin: Quick one: self-cleavage for C21U A70C ?
stdout: 0.332

stdin: Quick one: self-cleavage for G2C G55A ?
stdout: 0.0941

stdin: Quick one: self-cleavage for G5A U20C ?
stdout: 0
